Where do the numbers come from? From ChEMBL document CHEMBL4513216.

experiment: Toxicity liver stage against HepG2, at 10uM; type: cell-based; design: test concentration 10 uM, cell line HepG2-A16-CD81EGFP; details: human, HepG2-A16-CD81EGFP cells; read-out: INHIBITION
Kindly state cytotoxicity at 10 µM for each of the entries shown.
Just the number please, in %, no unit attached.

Task: Quick one: cytotoxicity at 10 µM for `COCCC(=O)N(Cc1cccnc1)CC1CCN(C2CCCC2)CC1` ?
Output: -5

Task: Value lookup for cytotoxicity at 10 µM; key = c1ccc(CCN2CCCC(c3noc(C4CC4)n3)C2)cc1 (centres undefined)
Output: -3.62

Task: Fill in: cytotoxicity at 10 µM of CC(CS(C)(=O)=O)NCc1cc(Cl)ccc1F (centres undefined) is ___
Output: -46.6

Task: cytotoxicity at 10 µM lookup needed for COC1CCN(C(=O)C2CCCC2)CC(=O)N(C)c2ccccc21 (centres undefined) , thanks.
Output: -8.88

Task: Entry under review: `O=C(c1ccc[nH]1)N1CCC(c2nccn2Cc2ccncc2)CC1` . Reported cytotoxicity at 10 µM?
Output: -16.8

Task: Field request: cytotoxicity at 10 µM | item: `COc1cc(C(=O)N2CCC(c3n[nH]c(C)n3)CC2)cc(OC)c1C`
Output: -10.9

Task: cytotoxicity at 10 µM lookup needed for `Cc1cccc(CN2C(=O)C[C@H]3[C@@H]2CCN3Cc2ccc(F)cc2)n1` , thanks.
Output: 2.2

Task: So what does the record say about cytotoxicity at 10 µM for CC(SCc1ccc(Br)c2cccnc12)C(N)=O (centres undefined) ?
Output: 1.67

Task: What value of cytotoxicity at 10 µM has been reported for the following compound? COCCN1CCN(C(C)c2nc(C3CC3)no2)CC1 (centres undefined)
Output: -8.36

Task: Which cytotoxicity at 10 µM value is on record for `Cn1ccnc(Nc2ccc3c(c2)CCN3C(=O)c2cccnc2)c1=O` ?
Output: -55

Task: Report cytotoxicity at 10 µM for `COCCCC(=O)N(C)c1ccc(F)c(Cl)c1` please.
Output: -0.577

Task: Recorded cytotoxicity at 10 µM for CC1CCCN(C(=O)c2cccc(CS(C)(=O)=O)c2)C1 (centres undefined) , please?
Output: -1.42

Task: Suppose we examine the compound `Cc1cc(CN2CCCn3nc(CCC(=O)O)cc3C2)ccc1F` ; what cytotoxicity at 10 µM value has been reported?
Output: 2.28

Task: Fill in: cytotoxicity at 10 µM of `O=S(=O)(NCCCn1cncn1)c1ccc2c(c1)OCCCO2` is ___
Output: 3.51

====

Could you please report measured cytotoxicity at 10 µM for the items listed next?
assay: Toxicity liver stage against HepG2, at 10uM; type: cell-based; set-up: test concentration 10 uM, cell line HepG2-A16-CD81EGFP; details: human, HepG2-A16-CD81EGFP cells; read-out: INHIBITION

Task: Query: cytotoxicity at 10 µM; subject: CC(C)C1CN(C(=O)c2ccc3nccnc3c2)CCS1 (stereo not drawn)
Output: 5.02%

Task: Tell me the measured cytotoxicity at 10 µM of `Cc1noc(C2CCN(C(=O)CN(C)c3ccc(Cl)cn3)CC2)n1` , please.
Output: -6.98%

Task: So what does the record say about cytotoxicity at 10 µM for `CC1CCN(S(=O)(=O)N2Cc3ccccc3C[C@H]2C(N)=O)CC1` ?
Output: -6.64%

Task: What cytotoxicity at 10 µM value was documented for this molecule, `CC(C)(C)OC(=O)NCC(=O)NCc1ccc(Cl)s1` ?
Output: -11.3%

Task: Fill in the blank: the reported cytotoxicity at 10 µM of CN(Cc1ccon1)C(=O)C1CC(=O)N(Cc2cccnc2)C1 (stereo not drawn) is ____.
Output: -3.83%

Task: Field request: cytotoxicity at 10 µM | item: `CN(c1cccnn1)C1CCN(C(=O)Cc2c[nH]c3ccccc23)CC1`
Output: -20.1%

Task: Given `CN(Cc1ccccc1F)C(=O)Cn1cc(NC(=O)C(C)(C)C)cn1` , state its recorded cytotoxicity at 10 µM.
Output: 5.23%

Task: Query: cytotoxicity at 10 µM; subject: `COc1cc(C(=O)NC(C)(C)CN2CCN(C)CC2)c2ccccc2n1`
Output: -1.41%

Task: Data request, read-out cytotoxicity at 10 µM, for `N#Cc1ccc(OC2CCN(C(=O)c3ccccc3Cl)CC2)nc1`
Output: 3.93%

Task: cytotoxicity at 10 µM for `CCOC(=O)[C@@H]1[C@@H](c2ccccc2)CN2CCN(S(C)(=O)=O)C[C@H]12` ?
Output: 0.227%

Task: Give the measured cytotoxicity at 10 µM of Cc1nccn1CCC1CCCCN1C(=O)c1ccc(N(C)C)cc1 (stereo not drawn) .
Output: 0.811%

Task: # input molecule: `CC(C)CCN1CCc2nc(N3CCOCC3)nc(NC(C)C)c2C1` ; wanted: its cytotoxicity at 10 µM
Output: -113%

Task: Which cytotoxicity at 10 µM value belongs to `CCn1cc(-c2cc(C(=O)N3CCOCC3)c3cc(Cl)ccc3n2)cn1` ?
Output: -1.53%

Task: Any idea what its cytotoxicity at 10 µM is? The molecule is Cn1nnc2c1CCN(CC1CC1)C2COCC1CC1 (stereo not drawn)
Output: -110%

Task: I'd like to know its cytotoxicity at 10 µM. The molecule in question is `Cc1c(C)n(Cc2ccccn2)c2nc3c(c(N)c12)CCCCCC3`
Output: 9.15%

Task: Give its cytotoxicity at 10 µM value. Item: `Cc1nnc(CN(C)CCOc2cccc(Cl)c2)o1`
Output: 12.8%

Task: What value of measured cytotoxicity at 10 µM is listed for Cn1cccc1CCC(=O)N1CCC2(CC1)c1ccccc1CC2O (stereo not drawn) ?
Output: -8.57%

Task: Recorded cytotoxicity at 10 µM for CCCn1ccc(C(=O)N2CCOC(c3nc(-c4cccs4)no3)C2)n1 (stereo not drawn) , please?
Output: 8.54%

Task: Would you mind telling me what cytotoxicity at 10 µM value was observed for `Cc1cc(=O)n2nc(Oc3cccc(C(N)=O)c3)sc2n1` ?
Output: -7.88%

Task: # query: cytotoxicity at 10 µM of entry `Cc1cnc(N2C[C@@H]3CN(Cc4ccco4)CCC[C@]3(C(=O)O)C2)nc1`
Output: 7.25%

Task: Quick one: cytotoxicity at 10 µM for `CS(=O)(=O)N[C@@H]1CN(C(=O)c2ccccn2)C[C@@H]2CCCO[C@@H]21` ?
Output: -74.8%

Task: Query: cytotoxicity at 10 µM; subject: CCC(C)N(Cc1cccnc1)C(=O)c1ccc(NS(=O)(=O)CC)cc1 (stereo not drawn)
Output: 7.1%

Task: Reported cytotoxicity at 10 µM for `NC(=O)c1cnc(NC(=O)CCc2ccco2)c(Cl)c1` : what is it?
Output: 3.42%

Task: Recorded cytotoxicity at 10 µM of Cc1ccc(C(CNCc2cnn(C(C)C)c2)N2CCOCC2)s1 (stereo not drawn) , please.
Output: -21.3%

Task: Any idea what cytotoxicity at 10 µM was measured for `Cc1oncc1C(=O)N1CC2CC1(C(=O)N1CCCC1)C2` ?
Output: 4.91%

Task: Look at this molecule and give its reported cytotoxicity at 10 µM. N#Cc1ccc2c(c1)CN(C(=O)c1nc[nH]n1)C2c1cnco1 (stereo not drawn)
Output: -2.6%

Task: Request the reported cytotoxicity at 10 µM associated with `C=C(C)CN(CC)Cc1nc(C)no1`
Output: -15.8%

Task: Can you share its cytotoxicity at 10 µM? I mean this molecule: `CN1C(=O)C2(CCN(C(=O)c3ccccc3)CC2)c2cc(F)ccc21`
Output: -106%

Task: Given the entry `Cc1ccc(C(=O)N2CCCc3c(c(=O)n(C)n3C)C2)o1` , report its measured cytotoxicity at 10 µM.
Output: 5.92%

Task: // lookup cytotoxicity at 10 µM for `Cc1ccc(N2CC[C@H]3[C@@H]2CCC(=O)N3CCN2CCOCC2)nn1`
Output: -3.18%

Task: Query (molecule): CC(NC1CCN(CCc2ccncc2)CC1)c1cnn(C(C)C)c1 (stereo not drawn) ; field requested: cytotoxicity at 10 µM
Output: -4.97%

Task: I am curious: what cytotoxicity at 10 µM value has been reported for `CCOCCNC(=O)c1cc(COc2cncc(Cl)c2)on1` ?
Output: 7.62%

Task: So what does the record say about cytotoxicity at 10 µM for Cc1csc(C2CCCCN2C(=O)CCCn2cccn2)n1 (stereo not drawn) ?
Output: -0.89%

Task: For the molecule `Cc1cnccc1CN(C)C(=O)c1ccc(Cn2cnnn2)cc1` , what cytotoxicity at 10 µM is on record?
Output: 8.15%

Task: Need cytotoxicity at 10 µM of `Cn1cnnc1SCc1cc2c(cc1Br)OCO2` , thanks.
Output: 6.44%

Task: Can you share its cytotoxicity at 10 µM? I mean this molecule: CC(C(=O)N(Cc1ccccc1)CC(F)(F)F)S(C)(=O)=O (stereo not drawn)
Output: 11%

Task: Param item = `Cc1csc2cc(C(=O)NC3CCCC3)cnc12` ; retrieve measured cytotoxicity at 10 µM.
Output: 3.13%

Task: Any idea what cytotoxicity at 10 µM was measured for `COCC(=O)N1CCC2(CC1)CN(c1ccccn1)CCO2` ?
Output: -71.2%

Task: Please look up its cytotoxicity at 10 µM: Cc1nc(N2CCC(C(O)c3nccn3C)CC2)c2sccc2n1 (stereo not drawn)
Output: -19.5%

Task: Given the entry `CC(C)OCCCNC(=O)Nc1cccc2ncccc12` , report its measured cytotoxicity at 10 µM.
Output: 2.96%

Task: Which cytotoxicity at 10 µM value is on record for COc1cccc(-c2noc(C3CCN(CC(N)=O)C3)n2)c1 (stereo not drawn) ?
Output: -11.3%

Task: Recorded cytotoxicity at 10 µM of `Cn1cc(C(=O)N2CC[C@@]3(O)CCN(C4CCCCC4)C[C@H]3C2)cn1` , please.
Output: -131%

Task: Quick one: cytotoxicity at 10 µM of Cc1cc(CN(C)C(=O)C2CCS(=O)(=O)C2)no1 (stereo not drawn) ?
Output: 0.746%
